All values here come from paper PMC5831858.

measured-target: rat EP4 receptor (Rattus norvegicus, UniProt P43114)
Sequence (P43114 whole entry): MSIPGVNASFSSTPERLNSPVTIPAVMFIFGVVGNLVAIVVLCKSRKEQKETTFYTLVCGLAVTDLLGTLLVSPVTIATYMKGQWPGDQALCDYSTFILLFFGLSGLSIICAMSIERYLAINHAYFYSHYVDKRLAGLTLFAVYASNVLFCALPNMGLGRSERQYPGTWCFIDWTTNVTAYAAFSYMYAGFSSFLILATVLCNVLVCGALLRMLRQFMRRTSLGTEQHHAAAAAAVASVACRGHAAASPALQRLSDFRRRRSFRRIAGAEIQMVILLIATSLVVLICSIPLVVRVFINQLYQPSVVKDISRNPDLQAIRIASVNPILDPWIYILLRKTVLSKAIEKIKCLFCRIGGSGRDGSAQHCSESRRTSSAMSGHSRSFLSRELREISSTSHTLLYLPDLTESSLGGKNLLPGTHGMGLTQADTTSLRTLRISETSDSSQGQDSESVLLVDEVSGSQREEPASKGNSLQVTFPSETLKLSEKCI
procedure-summary: EP4 radioligand binding assay ([^3H]PGE2), rat receptor
Design: the cDNA encoding the full-length rat (NM_032076) or mouse (NM_001136079) EP4 receptors; host or cells: HEK293 (transient)
measurement-setup: [^3H]PGE2 displacement; transiently transfected HEK293 membranes; read-out: Ki CR6086
reported-property: Ki (nM)
Field format: number, assumed nM, no unit text.

For `O=C([O-])c1ccc(C2(NC(=O)[C@H]3CC4(CCN3Cc3ccc(C(F)(F)F)cc3)CC4)CC2)cc1.[Na+]` the compound record lists Ki as 76.6
